FYI, the data here is from paper PMC5714123.

# target_desc: SMAD3 MH1 (Homo sapiens, UniProt P84022 1-132)
# Sequence (P84022 1-132): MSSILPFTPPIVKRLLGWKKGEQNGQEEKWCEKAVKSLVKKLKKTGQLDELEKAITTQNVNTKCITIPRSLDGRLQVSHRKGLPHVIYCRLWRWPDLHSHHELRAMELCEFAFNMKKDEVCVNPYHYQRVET
# protocol_summary: EMSA; Hill 1.8; EMSA: 25 mM Tris-HCl (pH not given for binding buffer; RNA stock pH 7.5), 115 mM KCl, 1 mM MgCl2, 1 mM DTT, 20 ng/ul poly I:C, 0.1 mg/ml BSA, 10% glycerol, on ice 2 h; 0.5x TBE gel at 4 C
# setup_conditions: protein: recombinant; tags: 6xHis-SUMO cleaved; label: 5' 32P; hairpin
pKd: −log10 of the molar value.
measurement_type: pKd

binder	value
GGACGUACUGCAGACAGUGGGCGUUCGCGCGUACGUCUGUGGGUACGUCC (structured_RNA) [6a hsa-miR-509 central stem]	5.68
